Tested on: HCV genotype 1b subgenomic replicon
Experiment: Anti-Hepatitis C replicon assay, genotype 1b (luciferase)
Type: cell-based
Settings: Hepatitis C virus; luciferase activity measured 48 hours later; read-out: HCV Genotype 1B Replicon pEC50 (converted)
Outcome Measure: EC50 (µM)
Numbers only, in µM.

// known answers, use as guide
>  <Smiles Record>
CC(C)c1cc(C(F)(F)F)c2ccc3nc(-c4nnco4)cn3c2n1

>  <Tested On>
HCV genotype 1b subgenomic replicon

>  <EC50 / µM>
0.316

$$$$
>  <Smiles Record>
CCOc1cc(C(F)(F)F)c2ccc3nc(-c4nnco4)cn3c2n1

>  <Tested On>
HCV genotype 1b subgenomic replicon

>  <EC50 / µM>
0.794

$$$$
>  <Smiles Record>
FC(F)(F)c1cc(Cl)nc2c1ccc1nc(-c3nnco3)cn12

>  <Tested On>
HCV genotype 1b subgenomic replicon

>  <EC50 / µM>
7.94

$$$$

Please look at the items below and tell me EC50 for each one, in order.
1. FC(F)(F)c1cc(C(F)(F)F)c2ccc3nc(-c4nnco4)c(Cl)n3c2n1
2. FC(F)(F)c1cc(C2CC2)nc2c1ccc1nc(-c3nnco3)cn12
3. Cn1c(-c2nnco2)cc2ccc3c(C(F)(F)F)cc(C(F)(F)F)nc3c21

1. 1.58
2. 0.398
3. 1

Record EC50 per entry; entries follow.
1. FC(F)(F)c1cc(-c2ccoc2)nc2c1ccc1nc(-c3nnco3)cn12
2. FC(F)Oc1cc(C(F)(F)F)c2ccc3nc(-c4nnco4)cn3c2n1

[0.794, 1.58]

---

System: HCV genotype 1b subgenomic replicon
Assay: Anti-Hepatitis C replicon assay, genotype 1b (luciferase)
Type: cell-based
Conditions: Hepatitis C virus; luciferase activity measured 48 hours later; read-out: HCV Genotype 1B Replicon pEC50 (converted)
For each of the compounds below, state its EC50.
Numbers only, in nM.

Consider the following illustrative entries.
>  <Compound>
CC(C)c1cc(Cl)c2ccc3nc(-c4nnco4)cn3c2n1 [Compound 23]

>  <EC50 [nM]>
3160

$$$$
>  <Compound>
Cc1cc(C(F)(F)F)c2ccc3nc(-c4nnco4)cn3c2n1 [Compound 7]

>  <EC50 [nM]>
631

$$$$

What value of EC50 has been reported for the following compound? FC(F)(F)c1cc(C(F)(F)F)c2ccc3[nH]c(-c4nnco4)cc3c2n1 [Compound 8]
631
